experimental-protocol: qHTS assay to identify small molecule agonists of the retinoic acid receptor (RAR) signaling pathway (AID 1159553)
experimental-context: C3RL4 RARE luciferase reporter, agonist, 6 h; series mostly up to 73.3 µM
Inconclusive results are not listed. The source made the active and inactive calls. Calls follow the shape of the dose curve; as a rule, active = well fitted activation curve with a large enough effect in the repeat runs; inconclusive = weak or mixed curves, or effect the other way; inactive = no such curve, though single readings can be large or run the other way.
Outcomes: active, inactive

{"columns": ["compound", "classification"],
 "data": [
  ["CC(C)(c1cc(Br)c(OCCO)c(Br)c1)c1cc(Br)c(OCCO)c(Br)c1", "inactive"],
  ["CC(C)(c1cc(Br)c(O)c(Br)c1)c1cc(Br)c(O)c(Br)c1", "inactive"],
  ["CCCCC(CC)COC(=O)c1ccc(O)cc1 (centres undefined)", "inactive"],
  ["CCN(CC)CCSC(=O)C(c1ccccc1)c1ccccc1", "inactive"],
  ["Nc1cc(Cl)c([N+](=O)[O-])cc1O", "inactive"],
  ["C=CC(=O)OCCOCC(CC)(COCCOC(=O)C=C)COCCOC(=O)C=C", "active"],
  ["CCC1(c2cnc[nH]2)Cc2ccccc2C1", "inactive"],
  ["S=P(N1CC1)(N1CC1)N1CC1", "inactive"],
  ["Cn1cnc2ncnc(N)c21", "inactive"],
  ["O=C(Oc1ccccc1)c1cccc(C(=O)Oc2ccccc2)c1", "active"],
  ["C(=C/c1ccccc1)/c1ccccc1", "inactive"],
  ["O=S(=O)(O)CCCN1CCOCC1", "inactive"],
  ["CC(COC(=O)c1ccccc1)OC(=O)c1ccccc1 (centres undefined)", "inactive"],
  ["NCCCCCCNCCCCCCN", "inactive"],
  ["O=C(O)CC(=O)O", "inactive"],
  ["Nc1ncnc2c1ncn2[C@@H]1O[C@H](COP(=O)(O)O)[C@@H](O)[C@H]1O", "inactive"],
  ["CCCCCCCCCCCC(=O)N(CC)CC", "inactive"],
  ["Cc1cc(Nc2ccc(O)cc2)ccc1N", "inactive"],
  ["CO[C@H]1C=CO[C@@]2(C)Oc3c(C)c(O)c4c(O)c(cc(O)c4c3C2=O)NC(=O)/C(C)=C\\C=C/[C@H](C)[C@H](O)[C@@H](C)[C@@H](O)[C@@H](C)[C@H](OC(C)=O)[C@@H]1C", "inactive"],
  ["CCN(CC)CCNc1ccc(CO)c2sc3ccccc3c(=O)c12", "inactive"],
  ["CC1CCCCN1CCCOC(=O)c1ccc(OC2CCCCC2)cc1 (centres undefined)", "inactive"],
  ["CCN(CC)c1ccc(N)cc1", "active"],
  ["Oc1c(Br)cc(Br)c2cccnc12", "inactive"],
  ["C/C=C/C=N/NC(=O)c1ccncc1", "inactive"]
]}

---

experimental-protocol: qHTS assay to identify small molecule agonists of the farnesoid-X-receptor (FXR) signaling pathway - cell viability counter screen (AID 743218); also: nearly all actives have a fitted effect of over 45% in size
experimental-context: FXR-bla HEK293T viability, CellTiter-Glo luminescence, 16 h; series mostly up to 62.6 µM
Excerpt: U.S. Tox21 Program National Center for Advancing Translational Sciences [NCATS] NIH Chemical Genomics Center [NCGC] U.S. Environmental Protection Agency [EPA] National Institutes of Environmental Health Sciences [NIEHS] National Toxicology Program [NTP] U.S. Food and Drug Administration [FDA] Tox21 Assay Overview: The farnesoid-X-receptor (FXR), a nuclear hormone receptor, is highly expressed in liver, intestine, kidney and adrenal cortex. […]
Records with an inconclusive call do not appear. Calls of active or inactive are those of the source. Calls follow the shape of the dose curve; as a rule, active = well fitted cell-killing curve with a large enough effect in the repeat runs; inconclusive = weak or mixed curves, or effect the other way; inactive = no such curve, though single readings can be large or run the other way.
Possible outcomes: yes (1) for active, no (0) for inactive

{"columns": ["compound", "classification"],
 "data": [
  ["CCCCCCCOC(=O)c1ccc(O)cc1", "no (0)"],
  ["O=Nc1ccc(NO)cc1", "no (0)"],
  ["CNCC[C@H](Oc1cccc2ccccc12)c1cccs1", "yes (1)"],
  ["CC(C)=C1CC[C@@H](C)CC1=O", "no (0)"],
  ["O=S(=O)(O)CCCN1CCOCC1", "no (0)"],
  ["COCC(=O)O[C@]1(CCN(C)CCCc2nc3ccccc3[nH]2)CCc2cc(F)ccc2[C@@H]1C(C)C", "yes (1)"],
  ["CNC(=S)NN", "no (0)"],
  ["CC1=C(/C=C/C(C)=C/C=C/C(C)=C\\C=O)C(C)(C)CCC1", "yes (1)"],
  ["CCN(CC)CCOc1ccc(C(O)(Cc2ccc(Cl)cc2)c2ccc(C)cc2)cc1 (stereo not drawn)", "yes (1)"],
  ["CNC(=O)c1cc(Oc2ccc(NC(=O)Nc3ccc(Cl)c(C(F)(F)F)c3)cc2)ccn1", "yes (1)"],
  ["CCCCCCCCCCCCCOP(=O)(O)O", "no (0)"],
  ["Cc1ccc2ccc3cccc4ccc1c2c34", "no (0)"],
  ["CCN1CCN(c2cc(-c3ccc(F)cc3)c3c(n2)CCCCCC3)CC1", "no (0)"]
]}
